Recorded percent inhibition of PKK at 0.56 μM for the following substances
- Test system: human PKK mRNA
- ASSAY NAME: Dose-dependent antisense inhibition of human PKK in HepaRG cells, 0.19-5.00 uM (Example 5)
- Type: cell-based
- CONDITION PARAMETERS: 0.56 μM, HepaRG cells, electroporation, approximately 16 hours; Table 36
Strand notation (5' to 3'): a small letter for the sugar, then the base; units joined by * are phosphorothioate-linked, units joined directly phosphodiester-linked; [ ] holds rarer units or linkages, { } end groups; capitals alone tell only the bases. e = 2'-O-(2-methoxyethyl) (MOE); [5mC] = 5-methylcytosine; d = 2'-deoxy (DNA)
Write the answer as a number in %, unit excluded.

Record excerpt, results attached:
1. 546986 (e[5mC]*eA*eG*eG*eA*dT*dA*dG*dA*dA*d[5mC]*dT*dG*dA*dT*eG*eG*eT*e[5mC]*e[5mC]; antisense) [compound 546986]	49
2. 547617 (antisense e[5mC]*eT*eG*eT*e[5mC]*d[5mC]*dT*dA*dT*dA*dT*d[5mC]*dA*d[5mC]*dT*eG*eT*eA*e[5mC]*e[5mC]) [compound 547617]	66
3. 546854 (eT*eA*eA*e[5mC]*eA*dG*dT*dA*dT*d[5mC]*dA*d[5mC]*dT*dG*dT*e[5mC]*e[5mC]*eT*eA*eT; antisense) [compound 546854]	39
4. 547293 (antisense e[5mC]*eA*eT*e[5mC]*eT*dG*dG*d[5mC]*dA*dG*dT*dA*dT*dT*dG*eG*eG*e[5mC]*eA*eT) [compound 547293]	57
5. 546826 (eA*eG*eT*eA*eT*d[5mC]*dA*d[5mC]*dT*dG*dT*dA*d[5mC]*dT*dA*eG*eT*eT*eT*e[5mC]; antisense) [compound 546826]	40

Recorded percent inhibition of PKK at 0.56 μM for 531231 (eT*eA*eT*e[5mC]*eA*d[5mC]*dT*dG*dT*dA*d[5mC]*dT*dA*dG*dT*eT*eT*e[5mC]*e[5mC]*eT) [compound 531231] , please?
64

Recorded percent inhibition of PKK at 0.56 μM for 548770 (antisense eT*eA*eA*e[5mC]*dA*dG*dT*dA*dT*d[5mC]*dA*d[5mC]*dT*eG*eT*e[5mC]*e[5mC]) [compound 548770] , please?
54

Recorded percent inhibition of PKK at 0.56 μM for 546897 (eA*eG*eT*eA*eT*d[5mC]*dA*d[5mC]*dT*dG*dT*d[5mC]*d[5mC]*dT*dA*eT*eG*eT*e[5mC]*eA; antisense) [compound 546897] , please?
56

Recorded percent inhibition of PKK at 0.56 μM for 546753 (e[5mC]*eT*eG*eG*e[5mC]*dT*d[5mC]*dA*d[5mC]*dT*dA*dT*dA*dG*dG*e[5mC]*e[5mC]*e[5mC]*e[5mC]*eA; antisense) [compound 546753] , please?
47
